test system: Rattus norvegicus; assay: Plasma concentration in Sprague-Dawley rat at 10 mg/kg, po by open-field test; type: ADME, organism-based; parameters: dose 10 mg/kg, route oral; settings: in vivo
quantity-measured: concentration
Enter the number, and then the unit.

Short answer on Rattus norvegicus for CC(=O)Nc1cccc(Nc2ncnc(N3CCC(OCc4ccc(OC(F)(F)F)cc4)CC3)n2)c1C , concentration: 1400 nM

====

experiment: AUC in Sprague-Dawley rat at 0.5 mg/kg, iv; type: ADME, organism-based; parameters: dose 0.5 mg/kg, route intravenous; conditions: plasma
quantity-measured: AUC (ng·h/mL)
Express the result in ng·h/mL but write the number alone.

Short answer for CC(=O)Nc1cccc(Nc2ncnc(N3CCc4ccccc4C3)n2)c1 : AUC was 126

====

system: Rattus norvegicus; assay: Plasma concentration in Sprague-Dawley rat at 20 mg/kg, po by open-field test; format: ADME, organism-based; set-up: dose 20 mg/kg, route oral; conditions: in vivo
quantity-measured: concentration

Short answer for CC(=O)Nc1cccc(Nc2ncnc(N3CCC(OCc4ccc(OC(F)(F)F)cc4)CC3)n2)c1C : concentration was 2900 nM

====

tested on: Rattus norvegicus; assay: Plasma concentration in Sprague-Dawley rat at 3 mg/kg, po by open-field test; type: ADME, organism-based; parameters: dose 3 mg/kg, route oral; conditions: in vivo
quantity-measured: concentration (nM)
Express the result in nM but write the number alone.

Short answer on Rattus norvegicus for CC(=O)Nc1cccc(Nc2ncnc(N3CCC(OCc4ccc(OC(F)(F)F)cc4)CC3)n2)c1C , concentration: 500

====

system: Rattus norvegicus; experiment: Plasma concentration in formalin-induced Sprague-Dawley rat at 30 mg/kg, po by open-field test; format: ADME, organism-based; set-up: dose 30 mg/kg, route oral; conditions: in vivo
quantity-measured: concentration (µM)
Express the result in µM but write the number alone.

Short answer for CC(=O)Nc1cccc(Nc2ncnc(N3CCC(OCc4ccc(OC(F)(F)F)cc4)CC3)n2)c1C : concentration was 4.4

====

What bioavailability was measured for each of the following?
assay: Oral bioavailability in Sprague-Dawley rat at 2 mg/kg; format: ADME, organism-based; settings: in vivo
Express the result in % but write the number alone.

Short answer for CC(=O)Nc1cccc(Nc2ncnc(N3CCC(OCc4ccc(OC(F)(F)F)cc4)CC3)n2)c1C : bioavailability was 67

Short answer for CC(=O)Nc1cccc(Nc2ncnc(N3CCC(OCc4ccccc4)CC3)n2)c1 : bioavailability was 19

Short answer for CC(=O)Nc1cccc(Nc2ncnc(N3CCC(OCc4ccc(C(F)(F)F)cc4)CC3)n2)c1C : bioavailability was 27

Short answer for CC(=O)Nc1cccc(Nc2ncnc(N3CCC(Oc4ccccc4)CC3)n2)c1 : bioavailability was 52

====

test: Aqueous solubility of the compound in 0.01 N HCl; type: physicochemical
What solubility was measured for each of the following?
Express the result in µg/mL but write the number alone.

Short answer for CC(=O)Nc1cccc(Nc2ncnc(N3CCc4ccccc4C3)n2)c1 : solubility was 42

Short answer for CC(=O)Nc1cccc(Nc2ncnc(N3CCC(OCc4ccccc4)CC3)n2)c1 : solubility was 157

====

assay: Aqueous solubility of the compound in PBS pH 7.4; assay type: physicochemical
quantity-measured: solubility (µg/mL)
Express the result in µg/mL but write the number alone.

Short answer for CC(=O)Nc1cccc(Nc2ncnc(N3CCc4ccccc4C3)n2)c1 : solubility was 1

Short answer for CC(=O)Nc1cccc(Nc2ncnc(N3CCC(Oc4ccccc4)CC3)n2)c1 : solubility was 11

Short answer for CC(=O)Nc1cccc(Nc2ncnc(N3CCC(OCc4ccccc4)CC3)n2)c1 : solubility was 15

====

system: Rattus norvegicus; experiment: Plasma concentration in Sprague-Dawley rat at 30 mg/kg, po by open-field test; type: ADME, organism-based; parameters: dose 30 mg/kg, route oral; details: in vivo
quantity-measured: concentration
Enter the number, and then the unit.

Short answer on Rattus norvegicus for CC(=O)Nc1cccc(Nc2ncnc(N3CCC(OCc4ccc(OC(F)(F)F)cc4)CC3)n2)c1C , concentration: 5.4 µM

====

What solubility was measured for each of the following?
assay: Aqueous solubility of the compound in SIF pH 6.8; format: physicochemical
Express the result in µg/mL but write the number alone.

Short answer for CC(=O)Nc1cccc(Nc2ncnc(N3CCC(Oc4ccccc4)CC3)n2)c1 : solubility was 110

Short answer for CC(=O)Nc1cccc(Nc2ncnc(N3CCC(OCc4ccccc4)CC3)n2)c1 : solubility was 86

Short answer for CC(=O)Nc1cccc(Nc2ncnc(N3CCc4ccccc4C3)n2)c1 : solubility was 31

====

test system: Rattus norvegicus; assay: Plasma concentration in formalin-induced Sprague-Dawley rat at 20 mg/kg, po by open-field test; format: ADME, organism-based; set-up: dose 20 mg/kg, route oral; conditions: in vivo
quantity-measured: concentration
Enter the number, and then the unit.

Short answer for CC(=O)Nc1cccc(Nc2ncnc(N3CCC(OCc4ccc(OC(F)(F)F)cc4)CC3)n2)c1C : concentration was 3.2 µM

====

tested on: LLC-PK1; experiment: Apparent permeability of the compound from basolateral to apical direction in pig LLC-PK1 cells expressing human MDR1; assay type: ADME, cell-based, Sus scrofa
What Papp was measured for each of the following?
Express the result in ×10⁻⁶ cm/s but write the number alone.

Short answer for CC(=O)Nc1cccc(Nc2ncnc(N3CCC(OCc4ccccc4)CC3)n2)c1 : Papp was 22.2

Short answer for CC(=O)Nc1cccc(Nc2ncnc(N3CCC(Oc4ccccc4)CC3)n2)c1 : Papp was 26.1

Short answer for CC(=O)Nc1cccc(Nc2ncnc(N3CCc4ccccc4C3)n2)c1 : Papp was 29.3

====

tested on: Rattus norvegicus; assay: Plasma concentration in formalin-induced Sprague-Dawley rat at 3 mg/kg, po by open-field test; assay type: ADME, organism-based; set-up: dose 3 mg/kg, route oral; conditions: in vivo
quantity-measured: concentration (nM)
Express the result in nM but write the number alone.

Short answer for CC(=O)Nc1cccc(Nc2ncnc(N3CCC(OCc4ccc(OC(F)(F)F)cc4)CC3)n2)c1C : concentration was 500
